target: CDK7/Cyclin H/MAT1 complex (Homo sapiens, UniProt P50613); assay: CDK7 inhibition assay (Caliper/LabChip EZ Reader kinase assay); type: biochemical; conditions: Table 1; CDK7/Cyclin H/MAT1 6 nM, ATP 2 mM, 35 min at 27° C.; listed as 128
Sequence (P50613 whole entry, species assumed): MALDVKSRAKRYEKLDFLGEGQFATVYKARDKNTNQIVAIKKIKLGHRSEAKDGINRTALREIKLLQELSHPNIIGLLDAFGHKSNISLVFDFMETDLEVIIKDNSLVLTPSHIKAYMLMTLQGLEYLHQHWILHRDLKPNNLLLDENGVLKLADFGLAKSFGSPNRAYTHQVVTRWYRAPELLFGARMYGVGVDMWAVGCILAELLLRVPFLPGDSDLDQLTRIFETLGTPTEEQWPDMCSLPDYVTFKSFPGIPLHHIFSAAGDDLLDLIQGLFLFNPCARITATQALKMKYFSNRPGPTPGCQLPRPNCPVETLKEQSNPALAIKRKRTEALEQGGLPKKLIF
Sequence (P51946 whole entry partner, species assumed): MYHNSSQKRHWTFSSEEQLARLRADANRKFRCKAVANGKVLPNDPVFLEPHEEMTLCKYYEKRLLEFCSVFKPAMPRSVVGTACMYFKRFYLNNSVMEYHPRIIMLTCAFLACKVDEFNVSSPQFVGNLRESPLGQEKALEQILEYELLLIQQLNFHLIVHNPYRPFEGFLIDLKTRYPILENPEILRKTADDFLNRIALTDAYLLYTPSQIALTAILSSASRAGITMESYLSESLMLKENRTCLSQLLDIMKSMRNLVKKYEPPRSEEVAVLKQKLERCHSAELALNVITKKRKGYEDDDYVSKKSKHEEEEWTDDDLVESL
Sequence (P51948 whole entry partner, species assumed): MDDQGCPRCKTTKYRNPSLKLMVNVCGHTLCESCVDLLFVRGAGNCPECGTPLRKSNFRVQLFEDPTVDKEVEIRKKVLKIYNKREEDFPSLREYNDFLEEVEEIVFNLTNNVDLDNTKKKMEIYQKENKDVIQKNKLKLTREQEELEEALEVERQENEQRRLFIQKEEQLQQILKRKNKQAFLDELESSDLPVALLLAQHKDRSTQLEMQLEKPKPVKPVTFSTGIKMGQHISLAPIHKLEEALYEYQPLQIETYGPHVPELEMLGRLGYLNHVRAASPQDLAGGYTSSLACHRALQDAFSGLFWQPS
Quantity name: IC50

Query :: Give reported IC50 value for N#Cc1ccc2c(-c3nc(N[C@@H]4CNC[C@@H](F)C4)ncc3C(F)(F)F)c[nH]c2c1
Result :: > 5 µM

----------
molecular target: CDK9/Cyclin T1 complex (Homo sapiens); test: CDK9 inhibition assay (Caliper/LabChip EZ Reader kinase assay); type: biochemical; details: Table 1; CDK9/Cyclin T1 8 nM, ATP 2 mM, 15 min at 27° C.; listed as 128
Sequence (P50750 whole entry, species assumed): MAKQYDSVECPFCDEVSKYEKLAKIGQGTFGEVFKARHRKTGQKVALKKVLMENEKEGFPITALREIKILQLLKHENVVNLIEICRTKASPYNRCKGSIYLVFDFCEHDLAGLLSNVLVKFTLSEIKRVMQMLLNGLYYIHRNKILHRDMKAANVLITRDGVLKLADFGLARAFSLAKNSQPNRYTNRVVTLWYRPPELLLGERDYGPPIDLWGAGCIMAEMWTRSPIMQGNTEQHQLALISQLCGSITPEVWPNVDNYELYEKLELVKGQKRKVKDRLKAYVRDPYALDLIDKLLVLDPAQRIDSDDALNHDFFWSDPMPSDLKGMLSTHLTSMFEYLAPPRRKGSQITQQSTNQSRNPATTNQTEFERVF
Sequence (O60563 whole entry partner, species assumed): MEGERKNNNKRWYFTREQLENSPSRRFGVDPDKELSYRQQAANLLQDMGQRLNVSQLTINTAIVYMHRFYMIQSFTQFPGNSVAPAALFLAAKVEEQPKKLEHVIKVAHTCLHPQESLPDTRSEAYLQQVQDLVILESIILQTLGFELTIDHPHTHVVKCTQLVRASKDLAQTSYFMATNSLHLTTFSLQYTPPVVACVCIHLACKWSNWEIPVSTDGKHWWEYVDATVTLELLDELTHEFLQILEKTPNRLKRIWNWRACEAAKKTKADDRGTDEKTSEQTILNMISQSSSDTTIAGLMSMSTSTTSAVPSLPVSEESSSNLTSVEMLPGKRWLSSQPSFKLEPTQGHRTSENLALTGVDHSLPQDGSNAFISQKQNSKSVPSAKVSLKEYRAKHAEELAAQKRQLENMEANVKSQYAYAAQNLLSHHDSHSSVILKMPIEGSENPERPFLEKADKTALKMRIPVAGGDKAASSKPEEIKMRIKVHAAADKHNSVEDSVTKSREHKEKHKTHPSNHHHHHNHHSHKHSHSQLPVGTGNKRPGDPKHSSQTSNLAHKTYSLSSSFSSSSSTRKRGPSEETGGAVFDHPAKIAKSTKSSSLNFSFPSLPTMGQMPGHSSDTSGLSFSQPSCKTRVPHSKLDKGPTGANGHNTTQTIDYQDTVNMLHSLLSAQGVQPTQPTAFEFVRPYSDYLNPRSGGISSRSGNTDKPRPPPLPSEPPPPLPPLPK
Quantity name: IC50

Query :: Give reported IC50 value for N#Cc1ccc2c(-c3nc(N[C@@H]4CNC[C@@H](F)C4)ncc3C(F)(F)F)c[nH]c2c1
Result :: > 5 µM

----------
A collection of compounds and their measured IC50
target: CDK12 (aa686-1082)/Cyclin K complex (Homo sapiens); construct: CDK12 (aa686-1082)/Cyclin K complex; test: CDK12 inhibition assay (Caliper/LabChip EZ Reader kinase assay); type: biochemical; conditions: Table 1; CDK12 (aa686-1082)/Cyclin K 50 nM, ATP 2 mM, 3 hr at 27° C.

compound=Oc1ncccc1-c1ccc2c(-c3nc(N[C@H]4CCCNC4)ncc3C(F)(F)F)c[nH]c2c1 recorded_result="0.2 to 5 µM"

// switching to the query compound
Query :: Give reported IC50 value for O=S(=O)(c1ccc2c(-c3nc(N[C@H]4CCCNC4)ncc3C(F)(F)F)c[nH]c2c1)C(F)F
Result :: 0.2 to 5 µM

----------
biological target: CDK12 (aa686-1082)/Cyclin K complex (Homo sapiens, UniProt Q9NYV4); construct: CDK12 (aa686-1082)/Cyclin K complex; assay: CDK12 inhibition assay (Caliper/LabChip EZ Reader kinase assay); assay type: biochemical; conditions: Table 1; CDK12 (aa686-1082)/Cyclin K 50 nM, ATP 2 mM, 3 hr at 27° C.
Sequence (Q9NYV4 686-1082, species assumed): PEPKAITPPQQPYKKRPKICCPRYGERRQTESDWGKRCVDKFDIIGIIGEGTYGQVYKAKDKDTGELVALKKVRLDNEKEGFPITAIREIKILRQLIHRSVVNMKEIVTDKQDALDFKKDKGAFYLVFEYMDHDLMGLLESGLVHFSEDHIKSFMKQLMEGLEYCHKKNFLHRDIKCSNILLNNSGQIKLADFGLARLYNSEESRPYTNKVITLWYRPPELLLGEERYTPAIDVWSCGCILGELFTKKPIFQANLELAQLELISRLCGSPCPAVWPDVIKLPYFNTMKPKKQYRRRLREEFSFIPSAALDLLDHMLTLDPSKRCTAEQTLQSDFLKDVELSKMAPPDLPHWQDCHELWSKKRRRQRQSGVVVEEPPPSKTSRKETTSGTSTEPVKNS
Sequence (O75909 whole entry partner, species assumed, the tested form may be a part): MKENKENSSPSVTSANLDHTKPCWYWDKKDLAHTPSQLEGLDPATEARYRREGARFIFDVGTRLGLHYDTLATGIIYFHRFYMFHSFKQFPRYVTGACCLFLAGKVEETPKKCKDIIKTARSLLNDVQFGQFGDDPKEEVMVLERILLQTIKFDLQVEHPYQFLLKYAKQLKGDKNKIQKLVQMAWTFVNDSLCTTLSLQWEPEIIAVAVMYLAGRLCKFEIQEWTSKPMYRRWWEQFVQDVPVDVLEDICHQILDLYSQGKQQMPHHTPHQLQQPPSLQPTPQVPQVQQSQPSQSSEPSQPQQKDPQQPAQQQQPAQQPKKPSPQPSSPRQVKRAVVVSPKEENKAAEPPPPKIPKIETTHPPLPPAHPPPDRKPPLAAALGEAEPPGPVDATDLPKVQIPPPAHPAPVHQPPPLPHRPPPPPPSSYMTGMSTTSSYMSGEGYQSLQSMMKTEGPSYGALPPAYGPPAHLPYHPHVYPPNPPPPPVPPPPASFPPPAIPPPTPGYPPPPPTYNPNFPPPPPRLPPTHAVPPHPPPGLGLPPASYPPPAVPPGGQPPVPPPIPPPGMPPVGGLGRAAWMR
Quantity name: IC50

Query :: Give reported IC50 value for FC(F)(F)c1cnc(N[C@H]2CCCNC2)nc1-c1c[nH]c2c(Br)cccc12 [Compound 163]
Result :: 0.2 to 5 µM

Query :: Give reported IC50 value for CCCCCC1CC[C@H](Nc2ncc(C(F)(F)F)c(-c3c[nH]c4ccccc34)n2)CN1 (mixture of isomers) [Compound 241]
Result :: 0.2 to 5 µM

Query :: Give reported IC50 value for O=C(C1CCC(Nc2ncc(C(F)(F)F)c(-c3c[nH]c4ccccc34)n2)CN1)N1CCC(O)C1 (mixture of isomers) [Compound 250]
Result :: 0.2 to 5 µM

Query :: Give reported IC50 value for Cc1noc([C@H]2CC[C@H](Nc3ncc(C(F)(F)F)c(-c4c[nH]c5cc(C#N)ccc45)n3)CN2)n1 [Compound 358]
Result :: > 5 µM

Query :: Give reported IC50 value for O[C@H]1CC[C@@H](c2cccc3c(-c4nc(N[C@H]5CCCNC5)ncc4C(F)(F)F)c[nH]c32)CC1 [Compound 207]
Result :: 0.2 to 5 µM

Query :: Give reported IC50 value for CCOP(=O)(OCC)c1cccc2c(-c3nc(N[C@H]4CCCNC4)ncc3C(F)(F)F)c[nH]c12 [Compound 168]
Result :: > 5 µM

Query :: Give reported IC50 value for Cc1nn(C)cc1-c1ccc2c(-c3nc(N[C@H]4CCCNC4)ncc3C(F)(F)F)c[nH]c2c1 [Compound 226]
Result :: 0.2 to 5 µM

Query :: Give reported IC50 value for FC(F)(F)c1cnc(N[C@@H]2CNC[C@H](c3nnc4ccccn34)C2)nc1-c1c[nH]c2ccccc12 [Compound 267]
Result :: 0.2 to 5 µM

Query :: Give reported IC50 value for O=S1(=O)CCN(c2cccc3c(-c4nc(N[C@H]5CCCNC5)ncc4Cl)c[nH]c23)CC1 [Compound 196]
Result :: 0.2 to 5 µM

Query :: Give reported IC50 value for CC1(C)CC[C@H](Nc2ncc(C(F)(F)F)c(-c3c[nH]c4cc(C#N)ccc34)n2)CN1 [Compound 350]
Result :: 0.2 to 5 µM

Query :: Give reported IC50 value for Brc1cnc(NC2CCCNC2)nc1-c1c[nH]c2ccccc12 (stereo in doubt) [Compound 133]
Result :: 0.02 to 0.2 µM

Query :: Give reported IC50 value for FC(F)(F)c1cnc(N[C@H]2CCCNC2)nc1-c1c[nH]c2cc(-c3ccc4[nH]cnc4c3)ccc12 [Compound 313]
Result :: 0.2 to 5 µM

Query :: Give reported IC50 value for CC(C)C1CC[C@H](Nc2ncc(C(F)(F)F)c(-c3c[nH]c4ccccc34)n2)CN1 (mixture of isomers) [Compound 257]
Result :: > 5 µM

Query :: Give reported IC50 value for O=C(c1ccc2c(-c3nc(N[C@H]4CCCNC4)ncc3C(F)(F)F)c[nH]c2c1)N1CC[C@](O)(C(F)(F)F)C1 (single isomer, unassigned) [Compound 299]
Result :: 0.2 to 5 µM

Query :: Give reported IC50 value for CO[C@H]1CCN(C(=O)c2ccc3c(-c4nc(N[C@H]5CCCNC5)ncc4C(F)(F)F)c[nH]c3c2)C1 [Compound 280]
Result :: 0.2 to 5 µM

Data credit: patent US20240360165A1
